// data source = patent US20130011412A1

# assaySystem: T1, recombinant human lymphotoxin-α homotrimer (human LTα3) (human, UniProt P01374 35-205)
# T1 construct: Coated on plates in the ELISAs; also called rhLTα; lymphotoxin-α3 trimer
# T1 sequence (looked up): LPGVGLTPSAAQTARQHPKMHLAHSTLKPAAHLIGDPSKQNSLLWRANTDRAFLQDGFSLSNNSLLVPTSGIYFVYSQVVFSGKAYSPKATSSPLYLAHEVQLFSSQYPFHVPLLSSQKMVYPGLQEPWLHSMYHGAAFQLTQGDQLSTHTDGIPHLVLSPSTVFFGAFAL
# protocolText: plate-based ELISA against LTα
Listing of entries alongside the reported relative binding (EC50 of the variant / EC50 of version 5).
The figure you give is taken to be in ratio; do not add the unit.

Measured relative binding (EC50 of the variant / EC50 of version 5), 3F12 version 9 (3F12.v5 with Y99A, CDR-H3) (antibody, IgG1, V domains shown, Alanine-scan variant of 3F12.v5; human kappa / IgG1) VH: EVQLVESGGGLVQPGGSLRLSCAASGYTFSSYWIEWVRQAPGKGLEWVGEISPGSGSTNYNEEFKGRATFSADNSKNTAYLQMNSLRAEDTAVYYCADGAHGYWGQGTLVTVSS VL: DIQMTQSPSSLSASVGDRVTITCKSSQSLLYSTNQKNFLAWYQQKPGKAPKLLIYWASTRDSGVPSRFSGSGSGTDFTLTISSLQPEDFATYYCQQYYSYPRTFGQGTKVEIK : 10

Measured relative binding (EC50 of the variant / EC50 of version 5), 3F12 version 19 (3F12.v5 with Y91A, CDR-L3) (antibody, IgG1, V domains shown, Alanine-scan variant of 3F12.v5; human kappa / IgG1) VH: EVQLVESGGGLVQPGGSLRLSCAASGYTFSSYWIEWVRQAPGKGLEWVGEISPGSGSTNYNEEFKGRATFSADNSKNTAYLQMNSLRAEDTAVYYCADGYHGYWGQGTLVTVSS VL: DIQMTQSPSSLSASVGDRVTITCKSSQSLLYSTNQKNFLAWYQQKPGKAPKLLIYWASTRDSGVPSRFSGSGSGTDFTLTISSLQPEDFATYYCQQAYSYPRTFGQGTKVEIK : 2.3

Measured relative binding (EC50 of the variant / EC50 of version 5), 3F12 version 20 (3F12.v5 with Y92A, CDR-L3) (antibody, IgG1, V domains shown, Alanine-scan variant of 3F12.v5; human kappa / IgG1; also called 3F12 clone 20) VH: EVQLVESGGGLVQPGGSLRLSCAASGYTFSSYWIEWVRQAPGKGLEWVGEISPGSGSTNYNEEFKGRATFSADNSKNTAYLQMNSLRAEDTAVYYCADGYHGYWGQGTLVTVSS VL: DIQMTQSPSSLSASVGDRVTITCKSSQSLLYSTNQKNFLAWYQQKPGKAPKLLIYWASTRDSGVPSRFSGSGSGTDFTLTISSLQPEDFATYYCQQYASYPRTFGQGTKVEIK : 0.71

Measured relative binding (EC50 of the variant / EC50 of version 5), 3F12 version 30 (3F12.v5 with E61A, CDR-H2) (antibody, IgG1, V domains shown, Alanine-scan variant of 3F12.v5; human kappa / IgG1) VH: EVQLVESGGGLVQPGGSLRLSCAASGYTFSSYWIEWVRQAPGKGLEWVGEISPGSGSTNYNAEFKGRATFSADNSKNTAYLQMNSLRAEDTAVYYCADGYHGYWGQGTLVTVSS VL: DIQMTQSPSSLSASVGDRVTITCKSSQSLLYSTNQKNFLAWYQQKPGKAPKLLIYWASTRDSGVPSRFSGSGSGTDFTLTISSLQPEDFATYYCQQYYSYPRTFGQGTKVEIK : 1.78

Measured relative binding (EC50 of the variant / EC50 of version 5), 3F12 version 29 (3F12.v5 with N60A, CDR-H2) (antibody, IgG1, V domains shown, Alanine-scan variant of 3F12.v5; human kappa / IgG1) VH: EVQLVESGGGLVQPGGSLRLSCAASGYTFSSYWIEWVRQAPGKGLEWVGEISPGSGSTNYAEEFKGRATFSADNSKNTAYLQMNSLRAEDTAVYYCADGYHGYWGQGTLVTVSS VL: DIQMTQSPSSLSASVGDRVTITCKSSQSLLYSTNQKNFLAWYQQKPGKAPKLLIYWASTRDSGVPSRFSGSGSGTDFTLTISSLQPEDFATYYCQQYYSYPRTFGQGTKVEIK : 2.31
